# target: human LILRB2 (human) (UniProt Q8N423)
# experimental_protocol: BLI Octet sandwich binning; competitor (antibody #1 on sensor) J-04

# binder, response of antibody #2
data = [
    ("J-04 (antibody, human IgG4 S228P, kappa, V domains shown) VH: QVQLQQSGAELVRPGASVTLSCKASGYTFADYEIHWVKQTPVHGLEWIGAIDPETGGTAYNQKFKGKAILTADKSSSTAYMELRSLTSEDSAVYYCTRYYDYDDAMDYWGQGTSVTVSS VL: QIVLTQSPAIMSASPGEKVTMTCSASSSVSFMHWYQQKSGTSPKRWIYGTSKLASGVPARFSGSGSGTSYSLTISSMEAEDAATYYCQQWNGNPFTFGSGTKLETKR", -0.1),
    ("J-19 (antibody, human IgG4 S228P, kappa, V domains shown) VH: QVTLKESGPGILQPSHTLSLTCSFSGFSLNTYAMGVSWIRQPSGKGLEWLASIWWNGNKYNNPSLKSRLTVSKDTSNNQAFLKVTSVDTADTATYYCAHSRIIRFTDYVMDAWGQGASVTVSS VL: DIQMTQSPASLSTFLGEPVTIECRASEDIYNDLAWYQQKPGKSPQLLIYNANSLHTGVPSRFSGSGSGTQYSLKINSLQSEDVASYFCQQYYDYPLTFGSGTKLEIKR", 0.67),
    ("J-17 (antibody, human IgG4 S228P, kappa, V domains shown) VH: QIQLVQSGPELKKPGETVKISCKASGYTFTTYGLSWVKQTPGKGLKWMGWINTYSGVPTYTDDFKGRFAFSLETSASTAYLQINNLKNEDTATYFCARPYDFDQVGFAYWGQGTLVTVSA VL: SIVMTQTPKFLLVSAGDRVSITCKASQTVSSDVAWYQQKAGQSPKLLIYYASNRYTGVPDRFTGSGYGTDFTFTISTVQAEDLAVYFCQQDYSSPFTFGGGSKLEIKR", 0.42),
    ("J-11 (antibody, human IgG4 S228P, kappa, V domains shown) VH: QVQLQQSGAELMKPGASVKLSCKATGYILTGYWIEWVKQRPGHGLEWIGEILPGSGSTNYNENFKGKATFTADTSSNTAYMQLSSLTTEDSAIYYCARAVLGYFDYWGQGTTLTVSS VL: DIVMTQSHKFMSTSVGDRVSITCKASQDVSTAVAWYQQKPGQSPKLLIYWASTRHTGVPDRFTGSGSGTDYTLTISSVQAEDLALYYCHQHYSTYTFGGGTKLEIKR", 0.51),
]
